assay: protein stability index of a GFP-peptide fusion (GPS, HEK-293T) (PSI 1-6); higher = more stable; settings: treatment: MLN4924 1 uM, 8 h; c terminus: a fixed tail appended;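 note: 24-mer peptide tiles fused after GFP, lentivirally expressed, FACS-sorted into six equal bins by GFP/DsRed ratio, decoded by Illumina sequencing, PSI is the read-weighted mean bin number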

PRIMARY SEQUENCE | protein stability index
IEDEDQILENSSQKENVFKCDSLK [FAN1] | 5.01
SLISLSNNTGKNLELKFVSSLRRQ [TENT5D] | 2.58
LYSLTLYGLRGPHKADSIQGTART [TNXB] | 2.48
IETSALDSTNVEEAFKNILTEIYR [RAB11B] | 2.79
GLSPRVIRVWFQNKRCKDKKKSIL [ISL2] | 2.36
QTFLDERTPRLMPDKESMYYPRVQ [GDAP1] | 3.41
PMYFFLGNLSVLDVGCISVTVPSM [OR3A1] | 3.06
VGRTGCFIVIDAMLERIKHEKTVD [PTPRD] | 2.54
VNDLRGSDSIAYDKGEKLLRCKLA [ADD1] | 3.48
VARSGTPAVENKQQIGDAIRMIVR [PLK2] | 3.09
TKGVREVERALQLPREPGDSAQFT [FEM1A] | 4.76
QQSQGWVHYMIHEPEPHILLFRRP [CKS1B] | 1.96
HSYLSGYISLLLRAEPYPTSRFGS [NR2F2] | 2.85
DVLSCEYYSPILDQWTPIAAMLRG [KLHL13] | 2.36
HINSISVNSDYETYMSADDLRINL [PPP2R2B] | 3.2
GRECQPRWETSSWSECSRTCGEGY [ADAMTSL2] | 3.49
SLSSIATCVYIAEIAPQHRRGLLV [SLC2A12] | 2.6
ATQTERRLDLAAVTLRRGLRSRAS [FAM189A2] | 4.41
VPPGDYLFQVVINPNFEVAESDYS [LOXL2] | 2.12
EARSLEHTLPVNRETLKRKVSGNR [ESR2] | 5.16
NVRDRDSGRNGEVSLDISPDLPFQ [PCDHGC5] | 4.59
DVRLDREHRVAGIFPRLSFKDKST [CLPTM1] | 4
KINENVAAGMRFPLPEAIDPDVGV [PCDHGA10] | 4.26
DAKDELEERLERCMSIVTSMTAGV [INTS3] | 4.09
LEDLERELDEPQHEMVAHRHRQEV [ZSCAN9] | 5.47
AMDNHSDSEEELAAFCPQLDDSTV [RETREG3] | 5.4
MAQYKGAASEAGRAMHLMKKREKQ [FAM50A] | 4.47

---

test: protein stability index of a GFP-peptide fusion (GPS, HEK-293T) (PSI 1-6); higher = more stable; conditions: treatment: DMSO; c terminus: native
METRIC: protein stability index

PRIMARY SEQUENCE | RESULT
IPRENAQISLDGDVTFFGALKLL [TNFSF13B] | 2.71
IRTANCTTANQNCVNKSKLLTDV [KCNA1] | 3.19
RLFQQSCPTGLVFSNSCKCCTWN [CHIT1] | 2.37
VAQTGILWLLMNNCFLNLSPRKP [GAGE1] | 2.71
KREEEALEERRLSRGEIPTLQRS [PKD2L1] | 5.33
EENELTSLAEDLLGLTDPNGGLA [TRADD] | 5.14

---

assay: protein stability index of a GFP-peptide fusion (GPS, HEK-293T) (PSI 1-6); higher = more stable; conditions: treatment: MLN4924 1 uM, 8 h; c terminus: a fixed tail appended

PRIMARY SEQUENCE | protein stability index
QSKPLLSAFADIIHSLKESGQLWL [FADS1] | 2.87
QASSERLGLDNRLFGHPGLDMELG [ADAMTSL2] | 4.02
ARDCFATGRHYWEVDVQEAGAGWW [TRIM14] | 2.41
YGLKPLTPNSKYVKLNVGGSLHYT [KCTD13] | 2.49
KPAFIGKTNLDGMITVQLPEVPAN [PTPRD] | 3.81
FSPIAIDGMSGLAGVGLSGGAAGA [ELAVL3] | 3.2
YCYRCGNQAAIMELDDTLKYSFLQ [PPP2CA] | 2.58
GIVVESNHDSHMAKERAHSTASHS [PDZK1] | 4.44
VCINLPPPLTRQIAVKTLGIGKNV [GFOD1] | 2.05
QPRLSYAEMAEDYPRYPDIHDLDL [CLCN6] | 4.24
NFKAHVSPHEMLQAVVLCSKKTFQ [USP39] | 2.26
GSRPACQLQVPTLRQQCAQVLRNN [ELOA2] | 4.51
APTSTCRTSVGVAVLGGFLYAVGG [KLHL20] | 2.71
VPDSDIKALTTLCDLADRELVVII [ESRRG] | 2.6
LQEPGEPQGPPASPSCPEEALAAT [PXN] | 5.28
PGEQGGGKLVLSSLPKRLCLVCGD [ESRRA] | 3.25
NDALSCEYECRRRMLMKRLDVTVQ [FAM98B] | 2.78
FKPVVAAQKISKGADPKSVVCAFF [ZC3H15] | 2.81
MMRGLSYSLTTSSTHKSSLCKVEI [RAB40A] | 2.28
AAPPPLKDDPEGDRDGCVITKVLL [ZBED3] | 3.62
IERSSSFSSITDSTMSLNIITVTL [DVL3] | 2.85
FLVMKGQEGAASKVLGRLRALSDT [SLC2A12] | 2.44
PPGSHLLYAKMIQKLADLRSLNEE [VDR] | 2.67
DEIENLLDSDHRELIGDYSKAFLL [CDC25B] | 3.41
SEQESLLQQAQAQFRMAQEEARRN [SMG5] | 5.14
LRVMTTNIRSARGNNPNGREAKMI [ELOA2] | 3.49
AFPAAVSSMKKFCRPLLPSCTTRL [PSD2] | 2.32

Reference source for all entries: the supplement of paper PMC10567573
